B1: library; a variant is named by its letters at N, in order (parent)
chain: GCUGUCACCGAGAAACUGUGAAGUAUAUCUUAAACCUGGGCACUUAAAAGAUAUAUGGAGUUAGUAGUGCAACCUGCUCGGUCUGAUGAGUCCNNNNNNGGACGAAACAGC

Variants of: B1
assay-overview: FACS-Seq fitted mean relative fluorescence mCherry/BFP without ligand (log10 relative fluorescence); HEK293T; ligand: cyclic di-GMP (c-di-GMP-II aptamer); higher = higher reporter protein expression
conditions-used: ligand present: no
Ranges used to classify FACS-Seq fitted mean (log10): bottom range (below -0.5), center range (-0.5 to below -0.2), top range (-0.2 or more)

• GCUGUCACCGAGAAACUGUGAAGUAUAUCUUAAACCUGGGCACUUAAAAGAUAUAUGGAGUUAGUAGUGCAACCUGCUCGGUCUGAUGAGUCCAUUCGCGGACGAAACAGC [AUUCGC] = top range
• GCUGUCACCGAGAAACUGUGAAGUAUAUCUUAAACCUGGGCACUUAAAAGAUAUAUGGAGUUAGUAGUGCAACCUGCUCGGUCUGAUGAGUCCUAUGGUGGACGAAACAGC [UAUGGU] = top range
• GCUGUCACCGAGAAACUGUGAAGUAUAUCUUAAACCUGGGCACUUAAAAGAUAUAUGGAGUUAGUAGUGCAACCUGCUCGGUCUGAUGAGUCCCAGCUAGGACGAAACAGC [CAGCUA] = center range
• GCUGUCACCGAGAAACUGUGAAGUAUAUCUUAAACCUGGGCACUUAAAAGAUAUAUGGAGUUAGUAGUGCAACCUGCUCGGUCUGAUGAGUCCCAAUAUGGACGAAACAGC [CAAUAU] = bottom range
• GCUGUCACCGAGAAACUGUGAAGUAUAUCUUAAACCUGGGCACUUAAAAGAUAUAUGGAGUUAGUAGUGCAACCUGCUCGGUCUGAUGAGUCCCCGGUGGGACGAAACAGC [CCGGUG] = bottom range
• GCUGUCACCGAGAAACUGUGAAGUAUAUCUUAAACCUGGGCACUUAAAAGAUAUAUGGAGUUAGUAGUGCAACCUGCUCGGUCUGAUGAGUCCGCAAAGGGACGAAACAGC [GCAAAG] = bottom range
• GCUGUCACCGAGAAACUGUGAAGUAUAUCUUAAACCUGGGCACUUAAAAGAUAUAUGGAGUUAGUAGUGCAACCUGCUCGGUCUGAUGAGUCCCAGUUAGGACGAAACAGC [CAGUUA] = bottom range
• GCUGUCACCGAGAAACUGUGAAGUAUAUCUUAAACCUGGGCACUUAAAAGAUAUAUGGAGUUAGUAGUGCAACCUGCUCGGUCUGAUGAGUCCAACCAAGGACGAAACAGC [AACCAA] = bottom range

In plain terms, what class is GCUGUCACCGAGAAACUGUGAAGUAUAUCUUAAACCUGGGCACUUAAAAGAUAUAUGGAGUUAGUAGUGCAACCUGCUCGGUCUGAUGAGUCCCGAGCGGGACGAAACAGC [CGAGCG] ?
bottom range

In plain terms, what class is GCUGUCACCGAGAAACUGUGAAGUAUAUCUUAAACCUGGGCACUUAAAAGAUAUAUGGAGUUAGUAGUGCAACCUGCUCGGUCUGAUGAGUCCGAUAAAGGACGAAACAGC [GAUAAA] ?
center range

In plain terms, what class is GCUGUCACCGAGAAACUGUGAAGUAUAUCUUAAACCUGGGCACUUAAAAGAUAUAUGGAGUUAGUAGUGCAACCUGCUCGGUCUGAUGAGUCCACCUAUGGACGAAACAGC [ACCUAU] ?
center range

In plain terms, what class is GCUGUCACCGAGAAACUGUGAAGUAUAUCUUAAACCUGGGCACUUAAAAGAUAUAUGGAGUUAGUAGUGCAACCUGCUCGGUCUGAUGAGUCCAAACUAGGACGAAACAGC [AAACUA] ?
center range

In plain terms, what class is GCUGUCACCGAGAAACUGUGAAGUAUAUCUUAAACCUGGGCACUUAAAAGAUAUAUGGAGUUAGUAGUGCAACCUGCUCGGUCUGAUGAGUCCCCACUAGGACGAAACAGC [CCACUA] ?
bottom range

In plain terms, what class is GCUGUCACCGAGAAACUGUGAAGUAUAUCUUAAACCUGGGCACUUAAAAGAUAUAUGGAGUUAGUAGUGCAACCUGCUCGGUCUGAUGAGUCCGCCACCGGACGAAACAGC [GCCACC] ?
top range

In plain terms, what class is GCUGUCACCGAGAAACUGUGAAGUAUAUCUUAAACCUGGGCACUUAAAAGAUAUAUGGAGUUAGUAGUGCAACCUGCUCGGUCUGAUGAGUCCGCCCCUGGACGAAACAGC [GCCCCU] ?
top range

In plain terms, what class is GCUGUCACCGAGAAACUGUGAAGUAUAUCUUAAACCUGGGCACUUAAAAGAUAUAUGGAGUUAGUAGUGCAACCUGCUCGGUCUGAUGAGUCCGCUGUUGGACGAAACAGC [GCUGUU] ?
bottom range

In plain terms, what class is GCUGUCACCGAGAAACUGUGAAGUAUAUCUUAAACCUGGGCACUUAAAAGAUAUAUGGAGUUAGUAGUGCAACCUGCUCGGUCUGAUGAGUCCAUGAUGGGACGAAACAGC [AUGAUG] ?
center range

In plain terms, what class is GCUGUCACCGAGAAACUGUGAAGUAUAUCUUAAACCUGGGCACUUAAAAGAUAUAUGGAGUUAGUAGUGCAACCUGCUCGGUCUGAUGAGUCCGAUUUAGGACGAAACAGC [GAUUUA] ?
center range

In plain terms, what class is GCUGUCACCGAGAAACUGUGAAGUAUAUCUUAAACCUGGGCACUUAAAAGAUAUAUGGAGUUAGUAGUGCAACCUGCUCGGUCUGAUGAGUCCAGUAAUGGACGAAACAGC [AGUAAU] ?
top range

In plain terms, what class is GCUGUCACCGAGAAACUGUGAAGUAUAUCUUAAACCUGGGCACUUAAAAGAUAUAUGGAGUUAGUAGUGCAACCUGCUCGGUCUGAUGAGUCCGCACUAGGACGAAACAGC [GCACUA] ?
top range

In plain terms, what class is GCUGUCACCGAGAAACUGUGAAGUAUAUCUUAAACCUGGGCACUUAAAAGAUAUAUGGAGUUAGUAGUGCAACCUGCUCGGUCUGAUGAGUCCCAUCUCGGACGAAACAGC [CAUCUC] ?
bottom range

In plain terms, what class is GCUGUCACCGAGAAACUGUGAAGUAUAUCUUAAACCUGGGCACUUAAAAGAUAUAUGGAGUUAGUAGUGCAACCUGCUCGGUCUGAUGAGUCCCCAUGCGGACGAAACAGC [CCAUGC] ?
top range

In plain terms, what class is GCUGUCACCGAGAAACUGUGAAGUAUAUCUUAAACCUGGGCACUUAAAAGAUAUAUGGAGUUAGUAGUGCAACCUGCUCGGUCUGAUGAGUCCCAAAGAGGACGAAACAGC [CAAAGA] ?
center range

In plain terms, what class is GCUGUCACCGAGAAACUGUGAAGUAUAUCUUAAACCUGGGCACUUAAAAGAUAUAUGGAGUUAGUAGUGCAACCUGCUCGGUCUGAUGAGUCCUAAUAGGGACGAAACAGC [UAAUAG] ?
top range

In plain terms, what class is GCUGUCACCGAGAAACUGUGAAGUAUAUCUUAAACCUGGGCACUUAAAAGAUAUAUGGAGUUAGUAGUGCAACCUGCUCGGUCUGAUGAGUCCUGAAUCGGACGAAACAGC [UGAAUC] ?
bottom range

In plain terms, what class is GCUGUCACCGAGAAACUGUGAAGUAUAUCUUAAACCUGGGCACUUAAAAGAUAUAUGGAGUUAGUAGUGCAACCUGCUCGGUCUGAUGAGUCCAAACUCGGACGAAACAGC [AAACUC] ?
bottom range

In plain terms, what class is GCUGUCACCGAGAAACUGUGAAGUAUAUCUUAAACCUGGGCACUUAAAAGAUAUAUGGAGUUAGUAGUGCAACCUGCUCGGUCUGAUGAGUCCAGACGCGGACGAAACAGC [AGACGC] ?
center range

In plain terms, what class is GCUGUCACCGAGAAACUGUGAAGUAUAUCUUAAACCUGGGCACUUAAAAGAUAUAUGGAGUUAGUAGUGCAACCUGCUCGGUCUGAUGAGUCCCUACACGGACGAAACAGC [CUACAC] ?
top range

In plain terms, what class is GCUGUCACCGAGAAACUGUGAAGUAUAUCUUAAACCUGGGCACUUAAAAGAUAUAUGGAGUUAGUAGUGCAACCUGCUCGGUCUGAUGAGUCCAUAUAGGGACGAAACAGC [AUAUAG] ?
top range

Reference source for all entries: the supplement of paper PMC6757056
